Hello, the source for this data is paper PMC10812921, in case you need it.

- testSystem: POU1 (OCT1 POU domain);BOB1 (OBF1, OCA-B) (human;human, UniProt P14859;Q16633 260-458;1-256, |)
- Sequence (P14859 260-458, chain 1 of 2): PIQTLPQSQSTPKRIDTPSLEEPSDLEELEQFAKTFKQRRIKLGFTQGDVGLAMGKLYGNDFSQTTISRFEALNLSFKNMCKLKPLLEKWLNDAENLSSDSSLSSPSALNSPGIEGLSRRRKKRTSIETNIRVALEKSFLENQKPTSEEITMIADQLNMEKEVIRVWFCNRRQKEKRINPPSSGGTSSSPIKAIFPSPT
- Sequence (Q16633 whole entry, chain 2 of 2, the tested form may be a part): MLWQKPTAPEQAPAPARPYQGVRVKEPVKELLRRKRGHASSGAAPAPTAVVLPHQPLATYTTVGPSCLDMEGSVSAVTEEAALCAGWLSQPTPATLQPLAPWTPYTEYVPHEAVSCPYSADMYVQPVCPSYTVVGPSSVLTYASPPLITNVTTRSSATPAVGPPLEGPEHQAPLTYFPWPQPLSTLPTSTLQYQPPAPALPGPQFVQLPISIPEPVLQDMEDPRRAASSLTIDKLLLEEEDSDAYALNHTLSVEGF
- testProtocol: EMSA-SELEX-seq; with BOB1 (ternary complex band); 20 mM Tris-HCl pH 7.6, 140 mM NaCl, 10% glycerol, 0.5 mM EDTA, 0.05% Triton X-100, 0.1 mg/mL BSA, 0.1 mg/mL poly(dI-dC), 5 mM DTT, room temperature, 20 min; high values mean tight binding
- conditionSummary: protein: recombinant;recombinant; copies: 1;1; dsDNA, one strand shown
This section presents sequences with their documented binding signal values.

Answered examples (3):
Data request: Dear colleague, I am looking for the recorded binding signal of the following sequence: ACAACAAC
Data returned: 0.0133 % of ANNNNAAN 8-mers

Data request: Ok, now AAGAAAAG
Data returned: 0.0905 % of ANNNNAAN 8-mers

Data request: Ok, now AGAAAAAG
Data returned: 0.0468 % of ANNNNAAN 8-mers

New cases:
Data request: Dear colleague, I am looking for the recorded binding signal of the following sequence: ATTATAAC
Data returned: 0.0581 % of ANNNNAAN 8-mers

Data request: Ok, now ACAGTAAC
Data returned: 0.0148 % of ANNNNAAN 8-mers

Data request: Ok, now AGTCGAAT
Data returned: 0.0468 % of ANNNNAAN 8-mers

Data request: Ok, now AAATTAAC
Data returned: 0.188 % of ANNNNAAN 8-mers

Data request: Ok, now ATAAAAAA
Data returned: 0.0823 % of ANNNNAAN 8-mers

Data request: Ok, now ACCCAAAG
Data returned: 0.0203 % of ANNNNAAN 8-mers

---

- testSystem: POU2 (OCT2 POU domain) (human, UniProt P09086 175-386)
- Sequence: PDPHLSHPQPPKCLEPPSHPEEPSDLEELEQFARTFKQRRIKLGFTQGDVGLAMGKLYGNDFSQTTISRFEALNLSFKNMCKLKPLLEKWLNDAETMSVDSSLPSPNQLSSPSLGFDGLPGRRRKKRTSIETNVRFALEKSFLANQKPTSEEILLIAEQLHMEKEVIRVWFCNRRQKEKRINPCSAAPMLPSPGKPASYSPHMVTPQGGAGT
- testProtocol: EMSA-SELEX-seq; no BOB1; 20 mM Tris-HCl pH 7.6, 140 mM NaCl, 10% glycerol, 0.5 mM EDTA, 0.05% Triton X-100, 0.1 mg/mL BSA, 0.1 mg/mL poly(dI-dC), 5 mM DTT, room temperature, 20 min; high values mean tight binding
- conditionSummary: protein: recombinant; dsDNA, one strand shown
quantity: binding signal

Answered examples (5):
Data request: Dear colleague, I am looking for the recorded binding signal of the following sequence: ACTGTAAC
Data returned: 0.0224 % of ANNNNAAN 8-mers

Data request: Ok, now AGGTAAAA
Data returned: 0.1 % of ANNNNAAN 8-mers

Data request: Ok, now AATCGAAA
Data returned: 0.0512 % of ANNNNAAN 8-mers

Data request: Ok, now AGCGAAAA
Data returned: 0.0386 % of ANNNNAAN 8-mers

Data request: Ok, now ACGATAAG
Data returned: 0.0311 % of ANNNNAAN 8-mers

New cases:
Data request: Dear colleague, I am looking for the recorded binding signal of the following sequence: AGGGGAAT
Data returned: 0.121 % of ANNNNAAN 8-mers

Data request: Ok, now ATCCGAAG
Data returned: 0.0299 % of ANNNNAAN 8-mers

Data request: Ok, now AGTCTAAC
Data returned: 0.0207 % of ANNNNAAN 8-mers

Data request: Ok, now AGATAAAG
Data returned: 0.0495 % of ANNNNAAN 8-mers

Data request: Ok, now ATCCGAAT
Data returned: 0.0748 % of ANNNNAAN 8-mers

Data request: Ok, now ATGAAAAC
Data returned: 0.0604 % of ANNNNAAN 8-mers

Data request: Ok, now ATGATAAA
Data returned: 0.131 % of ANNNNAAN 8-mers

---

- testSystem: POU1 (OCT1 POU domain) (human, UniProt P14859 260-458)
- Sequence (P14859 260-458): as the sequence (P14859 260-458, chain 1 of 2) above
- testProtocol: EMSA-SELEX-seq; no BOB1; 20 mM Tris-HCl pH 7.6, 140 mM NaCl, 10% glycerol, 0.5 mM EDTA, 0.05% Triton X-100, 0.1 mg/mL BSA, 0.1 mg/mL poly(dI-dC), 5 mM DTT, room temperature, 20 min; high values mean tight binding
- conditionSummary: protein: recombinant; dsDNA, one strand shown
quantity: binding signal

Answered examples (3):
Data request: Dear colleague, I am looking for the recorded binding signal of the following sequence: ACGAAAAG
Data returned: 0.032 % of ANNNNAAN 8-mers

Data request: Ok, now ACCGGAAT
Data returned: 0.0412 % of ANNNNAAN 8-mers

Data request: Ok, now AGATGAAC
Data returned: 0.0286 % of ANNNNAAN 8-mers

New cases:
Data request: Dear colleague, I am looking for the recorded binding signal of the following sequence: AGTTCAAT
Data returned: 0.0446 % of ANNNNAAN 8-mers

Data request: Ok, now ATTGAAAC
Data returned: 0.0431 % of ANNNNAAN 8-mers

Data request: Ok, now AAGTAAAT
Data returned: 0.19 % of ANNNNAAN 8-mers

---

- testSystem: POU1 (OCT1 POU domain) (human, UniProt P14859 260-458)
- testProtocol: EMSA-SELEX-seq; no BOB1; 20 mM Tris-HCl pH 7.6, 140 mM NaCl, 10% glycerol, 0.5 mM EDTA, 0.05% Triton X-100, 0.1 mg/mL BSA, 0.1 mg/mL poly(dI-dC), 5 mM DTT, room temperature, 20 min; high values mean tight binding
- conditionSummary: protein: recombinant; dsDNA, one strand shown
quantity: binding signal

Answered examples (3):
Data request: Dear colleague, I am looking for the recorded binding signal of the following sequence: ATGACAAA
Data returned: 0.0622 % of ANNNNAAN 8-mers

Data request: Ok, now AGTCCAAA
Data returned: 0.0256 % of ANNNNAAN 8-mers

Data request: Ok, now AATCAAAG
Data returned: 0.0854 % of ANNNNAAN 8-mers

New cases:
Data request: Dear colleague, I am looking for the recorded binding signal of the following sequence: ACGGAAAA
Data returned: 0.0515 % of ANNNNAAN 8-mers

Data request: Ok, now AGCACAAG
Data returned: 0.0168 % of ANNNNAAN 8-mers

Data request: Ok, now ATCCTAAG
Data returned: 0.0324 % of ANNNNAAN 8-mers

Data request: Ok, now AGAAGAAG
Data returned: 0.029 % of ANNNNAAN 8-mers

Data request: Ok, now AGCTTAAC
Data returned: 0.0194 % of ANNNNAAN 8-mers

---

- testSystem: POU2 (OCT2 POU domain) (human, UniProt P09086 175-386)
- Sequence: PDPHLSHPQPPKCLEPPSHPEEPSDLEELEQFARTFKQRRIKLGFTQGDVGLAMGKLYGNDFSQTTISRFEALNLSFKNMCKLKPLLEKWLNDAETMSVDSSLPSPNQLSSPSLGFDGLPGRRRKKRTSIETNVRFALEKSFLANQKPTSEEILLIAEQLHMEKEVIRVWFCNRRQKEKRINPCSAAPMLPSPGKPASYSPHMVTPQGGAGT
- testProtocol: EMSA-SELEX-seq; no BOB1; 20 mM Tris-HCl pH 7.6, 140 mM NaCl, 10% glycerol, 0.5 mM EDTA, 0.05% Triton X-100, 0.1 mg/mL BSA, 0.1 mg/mL poly(dI-dC), 5 mM DTT, room temperature, 20 min; high values mean tight binding
- conditionSummary: protein: recombinant; dsDNA, one strand shown
This section presents sequences with their documented binding signal values.

Answered examples (4):
Data request: Dear colleague, I am looking for the recorded binding signal of the following sequence: ATGCCAAG
Data returned: 0.0357 % of ANNNNAAN 8-mers

Data request: Ok, now AAATCAAC
Data returned: 0.0921 % of ANNNNAAN 8-mers

Data request: Ok, now ACTGGAAA
Data returned: 0.0328 % of ANNNNAAN 8-mers

Data request: Ok, now AACTTAAA
Data returned: 0.0501 % of ANNNNAAN 8-mers

New cases:
Data request: Dear colleague, I am looking for the recorded binding signal of the following sequence: AAAGAAAT
Data returned: 0.112 % of ANNNNAAN 8-mers

Data request: Ok, now ATCTTAAG
Data returned: 0.0541 % of ANNNNAAN 8-mers

Data request: Ok, now AGATTAAA
Data returned: 0.11 % of ANNNNAAN 8-mers

Data request: Ok, now AATAAAAG
Data returned: 0.121 % of ANNNNAAN 8-mers

Data request: Ok, now ATAGCAAA
Data returned: 0.0552 % of ANNNNAAN 8-mers

Data request: Ok, now ATACTAAT
Data returned: 0.182 % of ANNNNAAN 8-mers

Data request: Ok, now AGACGAAG
Data returned: 0.019 % of ANNNNAAN 8-mers

Data request: Ok, now ACATGAAT
Data returned: 0.179 % of ANNNNAAN 8-mers
